Recorded values, source ChEMBL document CHEMBL1132202.

In this section we review reported CC50 values for a set of compounds.
Assay: Compound was evaluated for cellular toxicity in on Human Rhinovirus-14 by using CPE/XTT assay (cytopathic effect assay)
Conditions: human rhinovirus sp.; read-out: TC50 (the source's name)
metric: CC50 (µg/mL)

[
  {
    "structure-as-smiles": "CNC(=O)/C=C(\\c1ccccc1)c1ccc2nc(N)c(-c3ccccc3)n2c1",
    "bound-operator": "=",
    "reported": 5.03
  },
  {
    "structure-as-smiles": "CNC(=O)/C=C(\\c1ccccc1)c1ccc2nc(N)c(-c3ccc(F)c(F)c3F)n2c1",
    "bound-operator": "=",
    "reported": 6.98
  },
  {
    "structure-as-smiles": "CNC(=O)/C=C(\\c1ccccc1)c1ccc2nc(N)c(-c3ccc(F)cc3C(F)(F)F)n2c1",
    "bound-operator": ">",
    "reported": 10
  },
  {
    "structure-as-smiles": "CNC(=O)/C=C(\\c1ccccc1)c1ccc2nc(N)c(SC(C)C)n2c1",
    "bound-operator": "=",
    "reported": 10
  },
  {
    "structure-as-smiles": "CNC(=O)/C=C(\\c1ccccc1)c1ccc2nc(N)c(-c3cc(F)ccc3F)n2c1",
    "bound-operator": "=",
    "reported": 4.87
  }
]

* * *

Assay: Compound was measured for inhibition on Human Rhinovirus-14 by using PRA assay (Antiviral activity)
Assay type: functional, Human rhinovirus sp.
metric: IC50

[
  {
    "structure-as-smiles": "CNC(=O)/C=C(\\c1ccccc1)c1ccc2nc(N)cn2c1",
    "metric": "IC50",
    "reported": "> 10 µg/mL"
  },
  {
    "structure-as-smiles": "CNC(=O)/C=C(\\c1ccccc1)c1ccc2nc(N)c(-c3ccccc3)n2c1",
    "metric": "IC50",
    "reported": "0.27 µg/mL"
  },
  {
    "structure-as-smiles": "CNC(=O)/C=C(\\c1ccccc1)c1ccc2nc(N)c(-c3cc(F)ccc3F)n2c1",
    "metric": "IC50",
    "reported": "0.18 µg/mL"
  },
  {
    "structure-as-smiles": "CNC(=O)/C=C(\\c1ccccc1)c1ccc2nc(N)c(SC(C)C)n2c1",
    "metric": "IC50",
    "reported": "0.17 µg/mL"
  },
  {
    "structure-as-smiles": "CNC(=O)/C=C(\\c1ccccc1)c1ccc2nc(N)c(-c3ccc(F)c(F)c3F)n2c1",
    "metric": "IC50",
    "reported": "0.17 µg/mL"
  }
]

* * *

Test: Compound was measured for inhibition on Human Rhinovirus-14 by using PRA assay (Antiviral activity)
Format: functional, Human rhinovirus sp.
In this section we review reported IC50 values for a set of molecules.

[
  {
    "structure-as-smiles": "CNC(=O)/C=C(\\c1ccccc1)c1ccc2nc(N)c(I)n2c1",
    "bound-operator": ">",
    "IC50 (µg/mL)": 3.2
  },
  {
    "structure-as-smiles": "CNC(=O)/C=C(\\c1ccccc1)c1ccc2nc(N)c(-c3ccc(F)cc3C(F)(F)F)n2c1",
    "bound-operator": "=",
    "IC50 (µg/mL)": 0.44
  },
  {
    "structure-as-smiles": "CNC(=O)/C=C(\\c1ccccc1)c1ccc2nc(N)c(S(=O)(=O)C(C)C)n2c1",
    "bound-operator": "=",
    "IC50 (µg/mL)": 0.64
  }
]
